I'd appreciate it if you could supply pIC50 values for the items below.
Tested on: Leishmania braziliensis
Assay: Antileishmanial activity against Leishmania braziliensis MHOM/BR/00/LTB300 promastigotes assessed as parasite viability after 5 days by MTT assay
Assay type: functional, organism-based
Conditions: MHOM/BR/00/LTB300, 120 h
The read-out pIC50 is expressed as -log10 of concentration in moles per litre.

Exam item: # input molecule: [O-][n+]1onc2ccc(/C=C\[S+]([O-])c3ccccc3)cc21 (stereo unspecified) ; wanted: its pIC50
Marked response: 5.34

Exam item: # input molecule: [O-][n+]1onc2ccc(/C=C/Sc3ccccc3)cc21 ; wanted: its pIC50
Marked response: 5.82

Exam item: # input molecule: [O-][n+]1onc2ccc(/C=C/Sc3ccc(F)cc3)cc21 ; wanted: its pIC50
Marked response: 5.37

Exam item: # input molecule: [O-][n+]1onc2ccc(/C=C/[S+]([O-])c3ccccc3)cc21 (stereo in doubt; 3E) ; wanted: its pIC50
Marked response: 4.50

Exam item: # input molecule: [O-][n+]1onc2ccc(/C=C/Sc3ccc(Cl)cc3)cc21 ; wanted: its pIC50
Marked response: 6.05

Exam item: # input molecule: O=S(=O)(/C=C\c1ccc2no[n+]([O-])c2c1)c1ccccc1 ; wanted: its pIC50
Marked response: 4.97

Exam item: # input molecule: C=CS(=O)(=O)Cc1ccc2no[n+]([O-])c2c1 ; wanted: its pIC50
Marked response: 4.77

Exam item: # input molecule: [O-][n+]1onc2ccc(/C=C\Sc3ccc(F)cc3)cc21 ; wanted: its pIC50
Marked response: 5.77

Exam item: # input molecule: O=S(=O)(/C=C/c1ccc2no[n+]([O-])c2c1)c1ccccc1 (stereo in doubt; 4E) ; wanted: its pIC50
Marked response: 4.67

Exam item: # input molecule: CCCCCCCCCCCCCCCCOP(=O)([O-])OCC[N+](C)(C)C ; wanted: its pIC50
Marked response: 5.05

Exam item: # input molecule: [O-][n+]1onc2ccc(/C=C\Sc3ccccc3)cc21 ; wanted: its pIC50
Marked response: 6.05

====

I'd appreciate it if you could supply pIC50 values for the items below.
Test system: Leishmania pifanoi
Experiment: Antileishmanial activity against Leishmania pifanoi MHOM/VE/57/LV135 promastigotes assessed as parasite viability after 5 days by MTT assay
Type: functional, organism-based
Details: MHOM/VE/57/LV135, 120 h
The read-out pIC50 is expressed as -log10 of concentration in moles per litre.

Exam item: # input molecule: [O-][n+]1onc2ccc(/C=C\Sc3ccccc3)cc21 ; wanted: its pIC50
Marked response: 5.35

Exam item: # input molecule: [O-][n+]1onc2ccc(/C=C\Sc3ccc(F)cc3)cc21 ; wanted: its pIC50
Marked response: 5.35

Exam item: # input molecule: [O-][n+]1onc2ccc(/C=C/Sc3ccc(Cl)cc3)cc21 ; wanted: its pIC50
Marked response: 5.34

Exam item: # input molecule: [O-][n+]1onc2ccc(/C=C/Sc3ccccc3)cc21 ; wanted: its pIC50
Marked response: 5.37

Exam item: # input molecule: [O-][n+]1onc2ccc(/C=C/Sc3ccc(F)cc3)cc21 ; wanted: its pIC50
Marked response: 5.37

====

Tested on: Trypanosoma cruzi
Experiment: Inhibition of Trypanosoma cruzi Tulahuen 2 mitochondrial dehydrogenase at 20 uM after 120 mins by MTT assay relative to control
Param threshold (20%) applies to inhibition; output t when value >= threshold, f when value < threshold.

Exam item: Identify whether the reported inhibition of the following compound is 20% or greater: C=CS(=O)(=O)Cc1ccc2no[n+]([O-])c2c1
Marked response: t

Exam item: Identify whether the reported inhibition of the following compound is 20% or greater: O=S(=O)(C=Cc1ccc2no[n+]([O-])c2c1)c1ccc(Cl)cc1
Marked response: f

Exam item: Identify whether the reported inhibition of the following compound is 20% or greater: O=C(/C=C/c1ccc2no[n+]([O-])c2c1)c1ccccc1
Marked response: t

Exam item: Identify whether the reported inhibition of the following compound is 20% or greater: [O-][n+]1onc2ccc(C=CSc3ccccc3)cc21
Marked response: f

Exam item: Identify whether the reported inhibition of the following compound is 20% or greater: O=S(=O)(C=Cc1ccc2no[n+]([O-])c2c1)c1ccc(F)cc1
Marked response: f
